Recorded values, source paper PMC12081684.

- Tested on: intracellular S. flexneri SF_nanoluc in Caco-2 cells on Cytodex 3 beads
- Assay overview: microbe, parasite or virus in culture
- Particulars: Caco-2
Experimental endpoint: Selectivity (log) Caco pIC50 vs cytox
Write the value in log as a bare number.

Lookup result for COc1ccc(C2Nc3nc4ccccc4n3C(C)=C2C(=O)Nc2ccccc2)cc1 (centres unmarked) [Compound 8] ; measured Selectivity (log) Caco pIC50 vs cytox: 0.38

Lookup result for N#Cc1cnn2c1[nH]c(=O)c1sc(-c3ccccc3)cc12 [Compound 9] ; measured Selectivity (log) Caco pIC50 vs cytox: 0.58

Lookup result for CC(C)c1noc2ncc(C(=O)c3ccccc3O)cc12 [Compound 12] ; measured Selectivity (log) Caco pIC50 vs cytox: 1.80

Lookup result for CC(=O)c1csc(-c2csc(C)n2)n1 [Compound 10] ; measured Selectivity (log) Caco pIC50 vs cytox: 1.07

* * *

- System: intracellular S. flexneri SF_nanoluc in Caco-2 cells on Cytodex 3 beads
- Assay overview: microbe, parasite or virus in culture
- Particulars: Caco-2
Experimental endpoint: Selectivity (log) Caco pIC50 vs Cytotox

Lookup result for COc1ccc2c(CC(=O)NC(c3ccc(Cl)cc3)C3CC3)coc2c1 (stereo not drawn) ; measured Selectivity (log) Caco pIC50 vs Cytotox: > 0.61 log

Lookup result for `NC(=O)c1ccccc1Oc1ccc(Cl)cc1[N+](=O)[O-]` ; measured Selectivity (log) Caco pIC50 vs Cytotox: 0.61 log

Lookup result for COc1ccc(C2Nc3nc4ccccc4n3C(C)=C2C(=O)Nc2ccccc2)cc1 (stereo not drawn) ; measured Selectivity (log) Caco pIC50 vs Cytotox: 0.38 log

Lookup result for `N#Cc1cnn2c1[nH]c(=O)c1sc(-c3ccccc3)cc12` ; measured Selectivity (log) Caco pIC50 vs Cytotox: 0.58 log

Lookup result for `CC(=O)c1cccc(NC(=O)Nc2ccc(S(=O)(=O)Nc3cc(C)on3)cc2)c1` ; measured Selectivity (log) Caco pIC50 vs Cytotox: > 0.76 log

Lookup result for Cc1nn(-c2ccccc2)c(C)c1NC(=O)CN1C(=O)NC(C)(c2ccco2)C1=O (stereo not drawn) ; measured Selectivity (log) Caco pIC50 vs Cytotox: > 0.61 log

Lookup result for `CC(=O)c1csc(-c2csc(C)n2)n1` ; measured Selectivity (log) Caco pIC50 vs Cytotox: 1.07 log

Lookup result for CCn1c(-c2nonc2N)nc2c(-c3cccc(Cl)c3)ncc(C(O)c3ccn(C)n3)c21 (stereo not drawn) ; measured Selectivity (log) Caco pIC50 vs Cytotox: > 1.49 log

Lookup result for `CC(C)c1noc2ncc(C(=O)c3ccccc3O)cc12` ; measured Selectivity (log) Caco pIC50 vs Cytotox: 1.80 log

* * *

- Tested on: HepG2 cells
- Assay overview: In vitro cytotoxicity on HepG2 cells
- Format: cell-based
- Particulars: Homo sapiens, HepG2, Supplementary table 8; read-out: HepG2 pIC50 (converted)
Please respond with reported IC50 for every item in the list.

COc1ccc2c(CC(=O)NC(c3ccc(Cl)cc3)C3CC3)coc2c1 (centres unmarked) tested on HepG2 cells gave IC50: > 100 µM

`CC(C)c1noc2ncc(C(=O)c3ccccc3O)cc12` tested on HepG2 cells gave IC50: > 100 µM

Cc1nn(-c2ccccc2)c(C)c1NC(=O)CN1C(=O)NC(C)(c2ccco2)C1=O (centres unmarked) tested on HepG2 cells gave IC50: > 100 µM

`NC(=O)c1ccccc1Oc1ccc(Cl)cc1[N+](=O)[O-]` tested on HepG2 cells gave IC50: 23.4 µM

`CC(=O)c1cccc(NC(=O)Nc2ccc(S(=O)(=O)Nc3cc(C)on3)cc2)c1` tested on HepG2 cells gave IC50: > 100 µM
